Source: patent US20230009608A1

Molecular target: GRK2 (Homo sapiens)
Construct: purchased SignalChem A14-10G
Sequence (P25098 whole entry): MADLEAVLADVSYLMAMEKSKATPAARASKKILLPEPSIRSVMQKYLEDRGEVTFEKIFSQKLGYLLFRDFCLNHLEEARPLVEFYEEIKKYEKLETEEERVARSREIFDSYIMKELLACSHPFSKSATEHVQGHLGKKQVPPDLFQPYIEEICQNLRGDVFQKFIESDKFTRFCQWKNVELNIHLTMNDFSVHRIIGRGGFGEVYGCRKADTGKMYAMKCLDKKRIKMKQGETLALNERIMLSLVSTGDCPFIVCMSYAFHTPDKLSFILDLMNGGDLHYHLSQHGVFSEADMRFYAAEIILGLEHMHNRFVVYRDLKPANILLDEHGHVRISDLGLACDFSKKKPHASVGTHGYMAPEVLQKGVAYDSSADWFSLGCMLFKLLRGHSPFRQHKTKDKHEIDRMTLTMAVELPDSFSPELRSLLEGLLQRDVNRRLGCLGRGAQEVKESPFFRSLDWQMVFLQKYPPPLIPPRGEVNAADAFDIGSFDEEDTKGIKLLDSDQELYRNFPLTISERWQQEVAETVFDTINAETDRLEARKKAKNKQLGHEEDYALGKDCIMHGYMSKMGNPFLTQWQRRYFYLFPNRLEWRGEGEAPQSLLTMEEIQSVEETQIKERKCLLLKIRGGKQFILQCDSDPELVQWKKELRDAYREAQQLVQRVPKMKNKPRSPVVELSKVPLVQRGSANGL
Assay: ADPGlo GRK2 Inhibition Assay (Example 8)
Assay type: biochemical
Conditions: Enzyme Assay A, ADPGlo (Example 8); read-out: A: Enzymatic GRK2: IC50 (nM) (Example 8)
Param label: returns t when IC50 < 20 nM, returns f otherwise, including exact equality.

molecule	label_value
Cn1c(CNc2cccc(C(=O)NCc3cccc(OCC(F)F)c3)c2)nnc1-c1ccncn1	f

-- ask IC50 strictly < 20 nM for this molecule? Cn1c(CNc2cccc(C(=O)NCc3ccnc(OCC(F)(F)F)c3)c2)nnc1-c1ccncn1 [drawing 339]
-- reply t

-- ask Consider CN(C)C[C@@H](NC(=O)c1cccc(NCc2nnc(-c3ccncn3)n2C)c1)c1ccccc1 . Does its IC50 lie strictly below 20 nM?
-- reply f

-- ask Bench note: check whether COC[C@H](NC(=O)c1cccc(NCc2nnc(-c3ccncn3)n2C)c1)c1ccccn1 shows IC50 below 20 nM
-- reply f

-- ask Check if IC50 falls below 20 nM for Cn1c(CNc2cccc(C(=O)NC3(c4ccncn4)CC3)c2)nnc1-c1ccncn1 .
-- reply f
